FYI, the data here is from PubChem BioAssay (NCI).

System: A549 NSCLC
Assay: NCI tumour cell line growth inhibition, 48 h
PARAMETER_MEASURED: TGI

O=S1Nc2cccc(C(F)(F)F)c2S1 (stereo unspecified) : > 100 µM
COc1ccc(C2c3ccc4ccccc4c3Oc3ncn(CCCn4ccnc4)c(=N)c32)cc1OC (stereo unspecified) : 13.8 µM
CN(C)c1ccc(N=C2N=C(Nc3ccccc3)C(=Nc3ccccc3)S2)cc1 : > 100 µM
O=C(N/C(=C\c1ccccc1)c1nc2ccccc2c(=O)o1)c1ccccc1 : > 100 µM
Nc1nc(-c2cccnc2)cc(-c2cc(-c3cccnc3)nc(N)n2)n1 : > 100 µM
Nc1ccc(Oc2ccc(C34CC5CC(C3)CC(c3ccc(Oc6ccc(N)cc6C(F)(F)F)cc3)(C5)C4)cc2)c(C(F)(F)F)c1 : 49 µM
COc1ccc(OC)c(N2CC(O)=C(c3nc4ccccc4s3)C2=N)c1 : > 100 µM
CCCN(CCC)c1ccc(/C=N/NC(=O)c2cccnc2)c(C)c1 : 36.8 µM
N#CC1(CCCI)CCCC1 : > 100 µM
COc1ccc(C2(CC(C)C)CCNC2)cc1OC (stereo unspecified) : > 100 µM
COc1ccc(C2(Cl)C(Cl)(C(F)(F)F)C2(Cl)C(F)(F)F)cc1 (stereo unspecified) : 28.1 µM

###

System: DMS 114 small cell lung
Assay: NCI tumour cell line growth inhibition, 48 h
PARAMETER_MEASURED: TGI

O=C1C(Cl)C(c2ccccc2Cl)N1n1cnc2ccccc2c1=O (stereo not given) : > 100 µM
COc1cc([C@@H]2c3cc4c(cc3[C@@H](NCc3ccccc3F)C3COC(=O)[C@@H]32)OCO4)cc(OC)c1O (stereo not given in full) : 28.3 µM
O=C1CCCc2ccc([N+](=O)[O-])c(O)c21 : > 100 µM
CCOC(=O)C(C)NC(=O)NC12CC3CC(CC(F)(C3)C1)C2 (stereo not given) : > 100 µM
NC1=NN(c2ccccc2)C(=O)C1C(=O)C(=O)Nc1ccccc1 (stereo not given) : > 100 µM

###

Test system: HCC-2998 colon
Assay: NCI tumour cell line growth inhibition, 48 h
PARAMETER_MEASURED: TGI

O=C(O)c1cc2ccccc2c(N=Nc2ccc(S(=O)(=O)Nc3ccccn3)cc2)c1O : > 100 µM
CCS1=C2C(=O)CC(C)(C)CC2=Nc2ccccc21 (stereo not given) : > 100 µM
Cc1ncc(C(=O)Nc2ccc(CN3CCN(C)CC3)c(C(F)(F)F)c2)cc1C#Cc1cnc(N)c2ccc(C#N)cc12 : 24.7 µM
CCOC(=O)C(C)NC(=O)NC12CC3CC(CC(F)(C3)C1)C2 (stereo not given) : > 100 µM
COc1cccc(/C=N\NC(=O)c2ccncc2)c1O : > 100 µM
CC(=O)NC(CCCCNCc1ccccc1)C(=O)NCc1ccccc1 (stereo not given) : > 100 µM
COc1cccc([C@@H]2C/C(=N\NC(=O)C(=O)N[C@@H](C)c3ccccc3)c3ccccc3N2)c1 : > 100 µM
COc1ccc(OC)c(N2CC(O)=C(c3nc4ccccc4s3)C2=N)c1 : > 100 µM
CC(=O)OCC12CC(CC1OC(C)=O)c1ccccc12 (stereo not given) : > 100 µM
CCn1nc(C2CCN(C(=O)CCO)CC2)nc1-c1cnc(N)c(-c2nnc(C(C)(C)C)o2)n1 : > 100 µM
Cc1nc2ccccc2c(=O)n1/N=C(\N=Nc1ccccc1)c1ccccc1Cl : > 100 µM
O=S(=O)(c1ccccc1)C1CC(c2nc3ccccc3[nH]2)=NO1 (stereo not given) : > 100 µM
CCOC(=O)c1c(CN2CCNCC2)nc2ccc(Cl)cc2c1-c1ccccc1 : 3 µM
O=C(Nc1ccc(I)cc1F)c1cc(Br)ccc1O : 10.7 µM
CCc1cc2c(c(OCC(F)(F)F)c(C(=O)NC3CCN(C(=O)CO)CC3)n2C)c(=O)n1CC(=O)c1ccccc1 : > 100 µM
COc1cc2c(/C=C3\C(=O)N(C)c4ccccc43)c[nH]c2cc1C : > 68.3 µM
CCCCCN(CCCCC)CCC[C@@H](C)[C@H]1CC[C@H]2[C@@H]3[C@H](OCCCN)C[C@@H]4C[C@H](OCCCN)CC[C@]4(C)[C@H]3C[C@H](OCCCN)[C@]12C : 24.9 µM
Clc1cc(Br)ccc1-c1ccc(CNCC2CCNCC2)o1 : 3.45 µM
N#CC1(CCCI)CCCC1 : > 100 µM
Cc1ccc(C(=O)NC2CCCCC2)cc1N=NN(C)C : > 100 µM
COC(=O)c1c2c(c(C)[n+]([O-])c1C)C(=O)C(NCc1ccccc1)=CC2=O : 7.98 µM
C/C(O)=C(/C=N/C(=S)Nc1ccccc1)C(=O)Nc1ccccc1C : > 100 µM
CC(C)N(C(=O)C12C3C4C5C3C1(C(=O)O)C5C42)C(C)C (stereo not given) : > 100 µM
NC(=O)N/N=C(\CC1OC(=O)c2ccccc21)c1ccc([N+](=O)[O-])cc1 (stereo not given) : 32.7 µM
Clc1ccc(-c2cnc3c(-c4ccnc(N5CCNCC5)c4)cnn3c2)cc1 : 3.51 µM
CCCCN(CCCC)P(=O)(Oc1ccccc1)Oc1ccccc1 : 22.2 µM
Cc1[nH]c(C(=O)Nc2ccc(C(=O)NCCN)cc2OC(C)C)c(Cl)c1Cl : 3.48 µM
CCc1cccc(C(C)C)c1NC(=O)/C(=N\NC(N)=O)C(C(=O)OC)c1cnc2ccccc2n1 (stereo not given) : > 100 µM
ClCc1ccccc1Cn1cnc2nc(Cl)nc(Cl)c21 : 8.56 µM
CC1(C)C(=O)/C=C\C(=O)C(C)(C)C2=CC=C(O2)C(C)(C)C(=O)C(Br)C(Br)C(=O)C(C)(C)C2=CC=C1O2 (stereo not given) : > 100 µM
CCCCCCCCCCCCc1ccc(S(=O)(=O)O)cc1.[Cu+2] : > 100 µM
COc1ccc(OC2(c3cc(OC)ccc3OC)OC(=O)c3ccccc32)cc1 (stereo not given) : > 100 µM
CCOC(=O)c1ccc(N2NC(=O)/C(=C/c3ccc([N+](=O)[O-])o3)C2=O)cc1 : > 56.5 µM
COC(=O)c1c(O)ccc2c1c1c(n2CCc2ccc(OC)c(OC)c2)C(=O)c2ccccc2C1=O : 15.7 µM
COc1cccc2c1C(=O)c1c(O)c3c(c(O)c1C2=O)C[C@](O)(C(=O)CO)C[C@H]3O[C@@H]1C[C@@H](NC(=O)CCCN(C)C2(c3ccc(F)cc3)CC3CCC2C3)[C@H](O)[C@@H](C)O1 (stereo not given in full) : 1.55 µM
N#Cc1c(-c2ccc([N+](=O)[O-])cc2)c2c([nH]c1=O)-c1ccccc1CCC2 : 71.1 µM
OCc1ccc(-c2nc(-c3ccc4c(c3)OCO4)c(-c3ccccn3)[nH]2)cc1 : > 25 µM
CN1CCN(C)C1c1ccc(C2N(C)CCN2C)cc1 : > 100 µM
O=C(Nc1ccc(Cl)c(C(F)(F)F)c1)Nc1ccc(-c2cccnc2)cc1N1CCC(CO)CC1 : 4.9 µM
CC(C)CC(=O)CC(C)[C@]1(CCCOCc2ccccc2)C(=O)N2CCC3(C[C@@]24CCC[C@H]41)OCCO3 (stereo not given in full) : > 10 µM
